// reported Masking Component Intensity per item
- experimental.details: Sensory evaluation of aqueous solution VI containing 1,5-octadien-3-ol 10 ppb: off-flavor intensity and masking component intensity
- condition.parameters: aqueous solution VI; 50 ppm added; average panel score
API doc: respond with a numeric literal and nothing else, no unit.

Examples with answers:
[
  {
    "compound": "CC1CCC(C(C)C)C(OCCO)C1 (stereo not shown) [2-menthoxyethanol]",
    "measurement.kind": "Masking Component Intensity",
    "recorded.value": 3.8
  },
  {
    "compound": "CC1CCC(C(C)C)C(OCC(O)CO)C1 (stereo not shown) [3-menthoxypropan-1,2-diol]",
    "measurement.kind": "Masking Component Intensity",
    "recorded.value": 2.9
  },
  {
    "compound": "CC(C)C=C(C=O)c1ccccc1 [4-methyl-2-phenyl-2-pentenal]",
    "measurement.kind": "Masking Component Intensity",
    "recorded.value": 3.5
  }
]

Note: attention shifts to another entry.
Problem: Endpoint output: Masking Component Intensity of CC(O)CC(=O)OC1CC(C)CCC1C(C)C (stereo not shown) [menthyl 3-hydroxybutyrate] . Value?
Solution: 3.6
